We begin with a simple list: items and their reported Population Fragmented Nuclei (%).
- System: HEK-293T
- protocol_notes: Multiplex assay against HEK293T
- Type: toxicity, cell-based
- test_conditions: human, 48 h, 1 µM, compound concentration 1 uM, replicate 2
measured_quantity: Population Fragmented Nuclei (%)

>>> result("O=c1cc(N2CCOCC2)oc2c(-c3cccc4c3sc3ccccc34)cccc12")
7
>>> result("COc1cc2ncn(-c3cc(OCc4ccccc4C(F)(F)F)c(C(N)=O)s3)c2cc1OC [GW843682X]")
7
>>> result("CCCSc1nc(N[C@@H]2C[C@H]2c2ccc(F)c(F)c2)c2nnn([C@@H]3C[C@H](OCCO)[C@@H](O)[C@H]3O)c2n1")
5
>>> result("C[C@]12CC[C@@H]3c4ccc(O)cc4CC[C@H]3[C@@H]1CC[C@@H]2O")
5
>>> result("CC(C)(C)NC[C@H](O)COc1nsnc1N1CCOCC1")
5
>>> result("Cl.O=C(O)c1cc(-c2ccc(C3CCNCC3)cc2)c2ccc(-c3ccc(C(F)(F)F)cc3)cc2c1")
4
